These measurements were taken from patent US20220064272A1.

# target: T1, TauC3 (C-terminally truncated tau fragment ending at aspartate 421 of htau40) (human, UniProt P10636 1-738)
# T1 construct: Generated and purified by Genscript; also called Human TauC3; recombinant TauC3 protein
# T1 sequence (P10636 other isoform, or with tags, fused parts or gaps): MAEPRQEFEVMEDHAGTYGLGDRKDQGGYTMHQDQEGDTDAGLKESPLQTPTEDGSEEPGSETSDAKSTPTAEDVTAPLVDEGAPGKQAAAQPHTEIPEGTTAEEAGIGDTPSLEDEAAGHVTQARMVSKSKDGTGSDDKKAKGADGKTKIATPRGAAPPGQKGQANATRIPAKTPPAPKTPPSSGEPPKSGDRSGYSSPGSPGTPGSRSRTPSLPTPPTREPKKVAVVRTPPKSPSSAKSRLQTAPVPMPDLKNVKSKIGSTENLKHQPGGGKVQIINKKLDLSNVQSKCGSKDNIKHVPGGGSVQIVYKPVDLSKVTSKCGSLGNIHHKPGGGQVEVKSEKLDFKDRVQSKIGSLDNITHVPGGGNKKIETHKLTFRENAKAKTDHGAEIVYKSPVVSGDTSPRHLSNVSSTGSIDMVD
# method summary: binding ELISA on coated TauC3, OD650; left table (HC variants)
reported property: EC50 (nM)
State the answer as a number, implicitly in nM.

Tau01 HCKG (antibody, V domains shown, human IgG4 kappa (HuG4K)) VH: LVQLVESGGGLVQPGGSLKLSCAASGFTFNTYAMNWVRQASGKGLEWVGRIRSKSNNYATYYAASVKGRFTISRDDSKSMAYLQMDSLKTEDTAVYYCVGGGDFWGQGTLVTVSS VL: DIQMTQSPSSLSASVGDRVTITCRASQEISVYLGWYQQKPGKAPKRLIYGAFTLQSGVPSRFSGSRSGTEFTLTISSLQPEDFATYYCLQYVRYPWTFGGGTKVEIK ... 0.573

Supply recorded EC50 for Tau01 HCKE (antibody, V domains shown, human IgG4 kappa (HuG4K)) VH: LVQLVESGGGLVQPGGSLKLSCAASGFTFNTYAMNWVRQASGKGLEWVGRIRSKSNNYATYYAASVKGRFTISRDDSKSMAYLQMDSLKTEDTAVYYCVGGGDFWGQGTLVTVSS VL: DIQMTQSPSSLSASVGDRVTITCRASQEISVYLGWFQQKPGKAPKRLIYGAFKLQSGVPSRFSGSRSGTEFTLTISSLQPEDFATYYCLQYVRYPWTFGGGTKVEIK here.
0.941

Supply recorded EC50 for Tau01 HCKC (antibody, V domains shown, human IgG4 kappa (HuG4K)) VH: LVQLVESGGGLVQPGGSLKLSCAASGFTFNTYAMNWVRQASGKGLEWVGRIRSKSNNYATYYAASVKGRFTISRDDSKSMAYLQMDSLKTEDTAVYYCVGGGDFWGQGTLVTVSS VL: DIQMTQSPSSLSASVGDRVTITCRASQEISVYLSWFQQKPGKAPKRLIYGAFKLQSGVPSRFSGSRSGTEYTLTISSLQPEDFATYYCLQYVRYPWTFGGGTKVEIK here.
1.57
